EXPERIMENT NOTES: Clearance in mouse liver microsomes
Type: ADME, Microsome
Starred links: 1 amine or outer side, 2 acyl side, 3 side chain; linkers in the order of their positions; H or OH if unused. Non-standard residues stand in square brackets, D forms with d. Residues, ends and D or L forms follow the SMILES beside them. *: point of attachment. X3 = C[C@H](CO[C@H](CC1CC2(CCC2)C1)[C@@H](C)C(=O)[*:2])N[*:1]; Cyclobutyl(trans-3-NH2) = N[C@H]1C[C@H](*)C1; X4 = CCCCCCN(CCN[*:1])[C@@H](C)C(=O)[*:2]; Gly(cHept) = N[C@H](C(=O)O)C1CCCCCC1; NMeL = CN[C@@H](CC(C)C)C(=O)O; Chg = N[C@H](C(=O)O)C1CCCCC1; NMeNva = CCC[C@H](NC)C(=O)O; Dap = NC[C@H](N)C(=O)O; X5 = NCCCNCCC*
EXPERIMENTAL READOUT: CLhep predicted (mL/min/kg)

[P] CCC[C@H]1C(=O)N[C@@H](C2CCCCCC2)C(=O)N[C@@H](CN)C(=O)N[C@@H](COCCCNCCCN)C(=O)N[C@H](C)CO[C@H](CC2CC3(CCC3)C2)[C@@H](C)C(=O)N1C (cyclo([Dap]S(X5)[X3][NMeNva][Gly(cHept)]))
[Q] CCCCCCN1CCNC(=O)[C@H](CO[C@H]2C[C@H](N)C2)NC(=O)[C@H](CN)NC(=O)[C@H](C2CCCCC2)NC(=O)[C@H](CC(C)C)N(C)C(=O)[C@@H]1C (cyclo([Chg][Dap]S(Cyclobutyl(trans-3-NH2))[X4][NMeL]))
*Q* Larger number for CLhep predicted: P , or Q ? State the label of the item chosen.
*A* P

Ref: ChEMBL document CHEMBL4665734
